Tested on: GSH
Test: HPLC-based GSH reactivity assay
Format: physicochemical
Details: 5 mM glutathione (GSH) in PBS buffer; 250 µM compound, 5 mM GSH, PBS pH 7.4; read-out: Reactivity with GSH (HPLC-based assay), t1/2
Answer each item with its documented half-life at 250 µM.

Task: Suppose we examine the compound CC(C)C[C@H](NC(=O)Cc1ccc2oc(C#N)nc2c1)B1O[C@@H]2C[C@@H]3C[C@@H](C3(C)C)[C@]2(C)O1 [Compound 39] ; what half-life at 250 µM value has been reported?
Output: 3 to 60 min

Task: Suppose we examine the compound COc1ccc2oc(C#N)nc2c1 [Compound 7] ; what half-life at 250 µM value has been reported?
Output: < 3 min

Task: Suppose we examine the compound COc1cccc2oc(C#N)nc12 [Compound 6] ; what half-life at 250 µM value has been reported?
Output: < 3 min

Task: Suppose we examine the compound COc1cccc2nc(C#N)oc12 [Compound 9] ; what half-life at 250 µM value has been reported?
Output: < 3 min

###

Target: β2 subunit of human cCP (Homo sapiens, UniProt P49720+Q99436)
Construct: purchased Boston Biochem, Inc., Cambridge, MA, USA
Assay: Residual β2 activity, Boc-LRR-AMC
Format: biochemical
Settings: PA28α, Table 3, read-out: β2 (RA [%])
outcomeMeasure: remaining activity at 10 µM

Task: Suppose we examine the compound `CC(=O)Oc1ccc2oc(C#N)nc2c1` ; what remaining activity at 10 µM value has been reported?
Output: > 90%

Task: Suppose we examine the compound `N#Cc1nc2cccc(O)c2o1` ; what remaining activity at 10 µM value has been reported?
Output: 71%

Task: Suppose we examine the compound `CC(=O)Oc1cccc2oc(C#N)nc12` ; what remaining activity at 10 µM value has been reported?
Output: > 90%

Task: Suppose we examine the compound `N#Cc1nc2cc(O)ccc2o1` ; what remaining activity at 10 µM value has been reported?
Output: > 90%

Task: Suppose we examine the compound `N#Cc1nc2c(O)cccc2o1` ; what remaining activity at 10 µM value has been reported?
Output: > 90%

###

Target: β5 subunit of human cCP (Homo sapiens, UniProt P20618+P28074)
Construct: purchased Boston Biochem, Inc., Cambridge, MA, USA
Assay: Inhibition of β5 activity (RA, IC50), Suc-LLVY-AMC
Assay type: biochemical
Conditions: 10 µM, 30 min pre-incubation, SDS
Answer each item with its documented β5 (RA [%]) at 10 µM.
Output spec: scalar in % ^c, unitless text.

Task: Suppose we examine the molecule `N#Cc1nc2cc(O)ccc2o1` ; what β5 (RA [%]) at 10 µM value has been reported?
Output: 53

Task: Suppose we examine the molecule `CC(=O)Oc1cccc2oc(C#N)nc12` ; what β5 (RA [%]) at 10 µM value has been reported?
Output: 56

Task: Suppose we examine the molecule `COc1cccc2oc(C#N)nc12` ; what β5 (RA [%]) at 10 µM value has been reported?
Output: 63

Task: Suppose we examine the molecule `CC(=O)Oc1ccc2oc(C#N)nc2c1` ; what β5 (RA [%]) at 10 µM value has been reported?
Output: 55

###

Answer each item with its documented remaining activity at 100 µM.
Molecular target: hMAO-A (Homo sapiens, UniProt P21397)
Construct: purchased Sigma Aldrich; host or cells: BTI-TN-5B1-4 insect cells
Sequence (P21397 1-527): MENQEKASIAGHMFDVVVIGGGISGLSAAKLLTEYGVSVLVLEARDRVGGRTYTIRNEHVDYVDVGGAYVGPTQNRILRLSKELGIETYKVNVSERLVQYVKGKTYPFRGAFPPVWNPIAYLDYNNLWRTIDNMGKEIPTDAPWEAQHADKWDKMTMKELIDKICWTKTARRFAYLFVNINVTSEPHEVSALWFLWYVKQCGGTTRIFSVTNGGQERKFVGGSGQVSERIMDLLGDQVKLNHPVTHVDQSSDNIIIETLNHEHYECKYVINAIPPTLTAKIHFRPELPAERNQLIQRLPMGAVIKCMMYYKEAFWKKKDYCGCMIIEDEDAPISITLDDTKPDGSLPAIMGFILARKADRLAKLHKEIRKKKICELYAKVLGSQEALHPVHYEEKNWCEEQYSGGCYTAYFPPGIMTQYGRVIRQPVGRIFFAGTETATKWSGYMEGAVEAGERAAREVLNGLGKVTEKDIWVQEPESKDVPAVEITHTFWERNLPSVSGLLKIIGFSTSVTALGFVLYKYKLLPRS
Test: Monoamine oxidase assay, hMAO-A
Assay type: biochemical
Conditions: 30 min pre-incubation, read-out: Residual activity [%] ± SD, hMAO-A
Output spec: scalar in %, unitless text.

Task: Suppose we examine the molecule CC(C)C[C@H](NC(=O)CCn1c(C#N)nc2cccc(Cl)c21)B1O[C@@H]2C[C@@H]3C[C@@H](C3(C)C)[C@]2(C)O1 [Compound 38] ; what remaining activity at 100 µM value has been reported?
Output: 24

Task: Suppose we examine the molecule CC(C)C[C@H](NC(=O)Cc1ccc2oc(C#N)nc2c1)B(O)O [Compound 40] ; what remaining activity at 100 µM value has been reported?
Output: 36

Task: Suppose we examine the molecule CC(C)C[C@H](NC(=O)CCCn1c(C#N)nc2ccccc21)B1O[C@@H]2C[C@@H]3C[C@@H](C3(C)C)[C@]2(C)O1 [Compound 31] ; what remaining activity at 100 µM value has been reported?
Output: 24

Task: Suppose we examine the molecule N#Cc1nc2cccc(O)c2o1 [Compound 13] ; what remaining activity at 100 µM value has been reported?
Output: 48

Task: Suppose we examine the molecule N#Cc1nc2cc(O)ccc2o1 [Compound 11] ; what remaining activity at 100 µM value has been reported?
Output: 26

Task: Suppose we examine the molecule C=Cc1nc(CC(=O)N[C@@H](CC(C)C)B2O[C@@H]3C[C@@H]4C[C@@H](C4(C)C)[C@]3(C)O2)cs1 [Compound 28] ; what remaining activity at 100 µM value has been reported?
Output: 42

Task: Suppose we examine the molecule CC(=O)Oc1cccc2oc(C#N)nc12 [Compound 14] ; what remaining activity at 100 µM value has been reported?
Output: 34

Task: Suppose we examine the molecule CC(C)C[C@H](NC(=O)Cc1ccc2oc(C#N)nc2c1)B1O[C@@H]2C[C@@H]3C[C@@H](C3(C)C)[C@]2(C)O1 [Compound 39] ; what remaining activity at 100 µM value has been reported?
Output: 42

Task: Suppose we examine the molecule N#Cc1nc2c(O)cccc2o1 [Compound 10] ; what remaining activity at 100 µM value has been reported?
Output: 38

Task: Suppose we examine the molecule COc1cccc2oc(C#N)nc12 [Compound 6] ; what remaining activity at 100 µM value has been reported?
Output: 27

Task: Suppose we examine the molecule CC(=O)Oc1ccc2oc(C#N)nc2c1 [Compound 15] ; what remaining activity at 100 µM value has been reported?
Output: 16

###

Target: β1 subunit of human cCP (Homo sapiens, UniProt P28072+Q99436)
Construct: purchased Boston Biochem, Inc., Cambridge, MA, USA
Test: Inhibition of β1 activity (RA, IC50), Ac-nLPnLD-AMC
Type: biochemical
Settings: 10 µM, PA28α, Table 3
Answer each item with its documented remaining activity at 10 µM.

Task: Suppose we examine the compound `CC(=O)Oc1ccc2oc(C#N)nc2c1` ; what remaining activity at 10 µM value has been reported?
Output: > 90%

Task: Suppose we examine the compound `N#Cc1nc2c(O)cccc2o1` ; what remaining activity at 10 µM value has been reported?
Output: > 90%

Task: Suppose we examine the compound `N#Cc1nc2cc(O)ccc2o1` ; what remaining activity at 10 µM value has been reported?
Output: > 90%

Task: Suppose we examine the compound `N#Cc1nc2cccc(O)c2o1` ; what remaining activity at 10 µM value has been reported?
Output: 76%

Task: Suppose we examine the compound `CC(=O)Oc1cccc2oc(C#N)nc12` ; what remaining activity at 10 µM value has been reported?
Output: > 90%

###

Target: hAChE (Homo sapiens)
Construct: gift of Xavier Brazzolotto, Florian Nachon and José Dias (IRBA, Brétigny-sur-Orge, France)
Sequence (P22303 32-614): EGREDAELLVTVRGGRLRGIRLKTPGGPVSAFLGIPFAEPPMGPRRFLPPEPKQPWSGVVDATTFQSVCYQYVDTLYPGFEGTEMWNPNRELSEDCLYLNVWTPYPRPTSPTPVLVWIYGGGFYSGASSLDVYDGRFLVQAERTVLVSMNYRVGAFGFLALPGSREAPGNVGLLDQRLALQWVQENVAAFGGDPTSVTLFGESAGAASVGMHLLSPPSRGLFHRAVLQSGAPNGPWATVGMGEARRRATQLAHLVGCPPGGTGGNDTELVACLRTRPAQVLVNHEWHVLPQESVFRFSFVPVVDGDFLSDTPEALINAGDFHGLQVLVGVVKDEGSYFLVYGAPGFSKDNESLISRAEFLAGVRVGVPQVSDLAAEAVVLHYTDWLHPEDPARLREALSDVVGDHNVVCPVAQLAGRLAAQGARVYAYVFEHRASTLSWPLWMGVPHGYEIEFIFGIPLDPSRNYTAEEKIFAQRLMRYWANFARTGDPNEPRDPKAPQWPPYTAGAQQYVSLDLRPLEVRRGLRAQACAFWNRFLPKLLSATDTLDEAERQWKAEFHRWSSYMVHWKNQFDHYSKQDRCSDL
Assay: Cholinesterase assay (Ellman), hAChE
Type: biochemical
Conditions: 30 min pre-incubation, read-out: Residual activity [%] ± SD, hAChE
outcomeMeasure: remaining activity at 100 µM

Task: I'm curious: which remaining activity at 100 µM was measured for CC(C)C[C@H](NC(=O)Cc1ccc2oc(C#N)nc2c1)B(O)O [Compound 40] tested on hAChE (Homo sapiens)?
Output: 46%

Task: I'm curious: which remaining activity at 100 µM was measured for N#Cc1nc2cccc(O)c2o1 [Compound 13] tested on hAChE (Homo sapiens)?
Output: 25%

Task: I'm curious: which remaining activity at 100 µM was measured for C=Cc1nc(CC(=O)N[C@@H](CC(C)C)B2O[C@@H]3C[C@@H]4C[C@@H](C4(C)C)[C@]3(C)O2)cs1 [Compound 28] tested on hAChE (Homo sapiens)?
Output: > 50%

Task: I'm curious: which remaining activity at 100 µM was measured for N#Cc1nc2cc(O)ccc2o1 [Compound 11] tested on hAChE (Homo sapiens)?
Output: 27%

Task: I'm curious: which remaining activity at 100 µM was measured for N#Cc1nc2c(O)cccc2o1 [Compound 10] tested on hAChE (Homo sapiens)?
Output: 27%

Task: I'm curious: which remaining activity at 100 µM was measured for CC(=O)Oc1cccc2oc(C#N)nc12 [Compound 14] tested on hAChE (Homo sapiens)?
Output: 11%

Task: I'm curious: which remaining activity at 100 µM was measured for CC(C)C[C@H](NC(=O)CCCn1c(C#N)nc2ccccc21)B(O)O [Compound 35] tested on hAChE (Homo sapiens)?
Output: > 50%

Task: I'm curious: which remaining activity at 100 µM was measured for CC(C)C[C@H](NC(=O)Cc1ccc2oc(C#N)nc2c1)B1O[C@@H]2C[C@@H]3C[C@@H](C3(C)C)[C@]2(C)O1 [Compound 39] tested on hAChE (Homo sapiens)?
Output: > 50%

Task: I'm curious: which remaining activity at 100 µM was measured for CC(C)C[C@H](NC(=O)CCn1c(C#N)nc2ccccc21)B1O[C@@H]2C[C@@H]3C[C@@H](C3(C)C)[C@]2(C)O1 [Compound 30] tested on hAChE (Homo sapiens)?
Output: > 50%

Task: I'm curious: which remaining activity at 100 µM was measured for CC(=O)Oc1ccc2oc(C#N)nc2c1 [Compound 15] tested on hAChE (Homo sapiens)?
Output: 33%

Task: I'm curious: which remaining activity at 100 µM was measured for COc1cccc2oc(C#N)nc12 [Compound 6] tested on hAChE (Homo sapiens)?
Output: > 50%

Task: I'm curious: which remaining activity at 100 µM was measured for CC(C)C[C@H](NC(=O)CCn1c(C#N)nc2ccccc21)B(O)O [Compound 34] tested on hAChE (Homo sapiens)?
Output: > 50%

Task: I'm curious: which remaining activity at 100 µM was measured for CC(C)C[C@H](NC(=O)CCCn1c(C#N)nc2ccccc21)B1O[C@@H]2C[C@@H]3C[C@@H](C3(C)C)[C@]2(C)O1 [Compound 31] tested on hAChE (Homo sapiens)?
Output: > 50%

Task: I'm curious: which remaining activity at 100 µM was measured for CC(C)C[C@H](NC(=O)CCn1c(C#N)nc2cccc(Cl)c21)B1O[C@@H]2C[C@@H]3C[C@@H](C3(C)C)[C@]2(C)O1 [Compound 38] tested on hAChE (Homo sapiens)?
Output: > 50%

These entries and their values trace back to paper PMC8700061.
